B1: HDV Ribozyme (parent)
chain: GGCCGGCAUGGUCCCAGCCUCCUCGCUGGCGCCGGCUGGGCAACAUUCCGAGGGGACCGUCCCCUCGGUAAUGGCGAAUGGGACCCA

variants of: B1; assay: self-cleavage, relative activity (ratio to wild type); higher = more cleavage; co-transcriptional
self-cleavage vs 0.2: at or above is Criterion met, below is Criterion not met.

For orientation, consider the following solved cases.
>>> class_label("C33U A77G")
"Criterion met"
>>> class_label("C4A G54U")
"Criterion met"
>>> class_label("U9A C58G")
"Criterion met"

Read the next record carefully.
Item C13A C48G with self-cleavage of 0.2 or above?
Criterion not met
